- target_of_assay: P2Y2 receptor (Homo sapiens, UniProt P41231)
- Construct: host or cells: cells not identified for the IP1 assay
- Sequence (P41231 whole entry): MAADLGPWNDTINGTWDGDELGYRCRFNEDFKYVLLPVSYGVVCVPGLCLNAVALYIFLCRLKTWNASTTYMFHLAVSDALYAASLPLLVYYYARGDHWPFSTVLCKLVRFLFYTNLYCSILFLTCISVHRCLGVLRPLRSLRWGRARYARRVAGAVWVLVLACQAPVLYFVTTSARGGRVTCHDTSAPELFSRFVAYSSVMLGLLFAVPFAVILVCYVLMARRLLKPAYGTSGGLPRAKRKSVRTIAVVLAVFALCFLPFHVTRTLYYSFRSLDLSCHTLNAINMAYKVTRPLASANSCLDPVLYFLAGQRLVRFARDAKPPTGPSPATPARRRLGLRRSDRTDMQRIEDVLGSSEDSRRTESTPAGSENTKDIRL
- assay_overview: IP1 accumulation assay (kit IP-one HTRF)
- Type: cell-based
- condition_label: compound falls in class +++; read-out: EC50, class +++ (<500 nM)
pEC50: −log10 of the molar value.
# Lookup of reported pEC50 keyed by entry

Query: I am curious: what pEC50 value has been reported for Cn1cnc2c(ncn2[C@@H]2O[C@H](COP(=O)(O)OP(=O)(O)OP(=O)(O)O)[C@@H](O)[C@H]2O)c1=N [Compound P, 1-Methyl-Adenosine-5′-triphosphate] ?
Reply: > 6.30

More entries:
Query: What value of pEC50 has been recorded for this entry: `COc1ccc(O[C@@H]2O[C@H](COP(=O)(O)OP(=O)(O)OP(=O)(O)OP(=O)(O)OC[C@H]3O[C@@H](n4cnc5c(=N)n(C)cnc54)[C@H](O)[C@@H]3O)[C@@H](O)[C@H]2O)cc1`
Reply: > 6.30

Query: Reported pEC50, compound `CNc1c2ncn([C@@H]3O[C@H](COP(=O)(O)OP(=O)(O)OP(=O)(O)OP(=O)(O)OC[C@H]4O[C@@H](Oc5ccc(OC)cc5)[C@H](O)[C@@H]4O)[C@@H](O)[C@H]3O)c2nc[n+]1C` : ____
Reply: > 6.30

Taken from patent US8569259B2.
